Exercise: state measured Rat VPAC1 Receptor: DiscoveRx: (EC50; nM) for each of the binders provided.
tested.target: T1, rat VPAC1 receptor (rat, UniProt P30083 31-459)
T1 sequence (looked up): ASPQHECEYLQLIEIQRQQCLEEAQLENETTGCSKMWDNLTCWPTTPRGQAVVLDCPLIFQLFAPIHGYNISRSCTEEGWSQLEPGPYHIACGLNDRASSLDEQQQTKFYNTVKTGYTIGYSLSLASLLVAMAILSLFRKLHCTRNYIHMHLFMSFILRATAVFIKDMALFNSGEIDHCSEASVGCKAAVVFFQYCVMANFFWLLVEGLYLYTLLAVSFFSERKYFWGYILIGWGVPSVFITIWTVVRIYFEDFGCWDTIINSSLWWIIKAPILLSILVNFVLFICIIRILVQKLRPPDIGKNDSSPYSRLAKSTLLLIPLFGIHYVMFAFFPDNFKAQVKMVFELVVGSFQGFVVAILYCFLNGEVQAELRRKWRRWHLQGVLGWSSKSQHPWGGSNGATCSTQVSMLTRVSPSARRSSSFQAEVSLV
measurement.protocol: cell-based or functional assay
One number for each entry, in nM.

binder	numeric.result
HSDAVFTEQYTXLRXQVCAXXYLQSIXXGGPSSGAPPPS (C6-HSDAVFTEQY(OMe)TOrnLRAibQVC(PEG40K)AAibOrnYLQSIOrnOrnGGPSSGAPPPS-NH2) [P478]	2050

Shifting focus to the binder that follows.
Read off the recorded Rat VPAC1 Receptor: DiscoveRx: (EC50; nM) for HSDAVFTEQYTXLRXQLAXXXYLQXCXXGGPSSGAPPPS (C6-HSDAVFTEQY(OMe)TOrnLRAibQLAAbuAibOrnYLQAibC(PEG40K)OrnOrnGGPSSGAPPPS-NH2) [P541]
665
